biological target: furin, P09958; assay: furin cleavage Z-score vs untreated control; higher = more cleavage, active = 3.5 or more, inactive = 1 or less, 8 variable residues between constant flanks; details: 30 min;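 further: purified furin at 1:10 enzyme:substrate in 50 mM HEPES pH 7.5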
Sequence (P09958 whole entry): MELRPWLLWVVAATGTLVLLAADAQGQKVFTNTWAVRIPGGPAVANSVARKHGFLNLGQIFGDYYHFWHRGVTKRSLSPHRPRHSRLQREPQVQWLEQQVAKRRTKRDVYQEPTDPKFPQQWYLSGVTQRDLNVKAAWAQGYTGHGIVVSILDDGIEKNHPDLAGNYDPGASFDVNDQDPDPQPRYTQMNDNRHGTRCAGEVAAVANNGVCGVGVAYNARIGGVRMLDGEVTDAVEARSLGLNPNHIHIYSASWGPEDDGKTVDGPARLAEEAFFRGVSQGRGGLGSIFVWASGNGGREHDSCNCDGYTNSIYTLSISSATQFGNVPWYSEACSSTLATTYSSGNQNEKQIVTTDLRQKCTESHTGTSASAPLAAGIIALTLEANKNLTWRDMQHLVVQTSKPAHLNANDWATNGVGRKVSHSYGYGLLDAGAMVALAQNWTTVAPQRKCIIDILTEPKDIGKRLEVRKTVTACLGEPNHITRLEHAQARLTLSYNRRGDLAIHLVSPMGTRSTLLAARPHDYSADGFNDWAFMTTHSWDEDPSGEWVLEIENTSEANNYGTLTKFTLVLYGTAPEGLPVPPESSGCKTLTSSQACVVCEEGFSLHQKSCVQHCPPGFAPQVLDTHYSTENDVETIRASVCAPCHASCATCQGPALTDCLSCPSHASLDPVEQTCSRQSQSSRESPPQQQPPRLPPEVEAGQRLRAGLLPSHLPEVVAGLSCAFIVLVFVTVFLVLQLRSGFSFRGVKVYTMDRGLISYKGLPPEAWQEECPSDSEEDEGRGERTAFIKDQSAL
The other results are listed elsewhere or left out. No count for the full screen is at hand.
Outcomes you can answer with include only these: True (active), False (inactive)

Sequence Code: CALERRSVYTAGNASASA [FS-1986]
Category Label: False

Request: Query: recorded result category for CASLCRYRRVAGNASASA [FS-1657] in this test
Response: True

Request: Query: recorded result category for CAVVCCSMNYAGNASASA [HC2081] in this test
Response: False

Request: Query: recorded result category for CASRCRFLRSAGNASASA [FS-1086] in this test
Response: True

Request: Query: recorded result category for CAGERPSGMFAGNASASA [HC913] in this test
Response: False

Request: Query: recorded result category for CAERTTPCSGAGNASASA [HC1973] in this test
Response: False
